Data origin: patent US20110105504A1

- target.under.test: human 11β-HSD1 (Homo sapiens, UniProt P28845)
- Sequence (P28845 whole entry): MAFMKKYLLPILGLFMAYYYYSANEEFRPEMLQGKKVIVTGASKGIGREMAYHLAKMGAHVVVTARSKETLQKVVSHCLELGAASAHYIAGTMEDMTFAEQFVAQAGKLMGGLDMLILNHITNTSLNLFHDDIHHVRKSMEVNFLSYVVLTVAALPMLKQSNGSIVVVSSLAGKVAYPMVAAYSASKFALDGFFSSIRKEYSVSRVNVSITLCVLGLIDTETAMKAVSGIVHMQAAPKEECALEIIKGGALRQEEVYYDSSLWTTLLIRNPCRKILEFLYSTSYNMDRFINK
- method: Inhibition of microsomal preparation of 11β-HSD1 (SPA, [3H]cortisone to [3H]cortisol), Biological Test Example 1
- test.parameters: microsomes from CHO cells overexpressing human 11β-HSD1; read-out: IC50 Range
pIC50: −log10 of the molar value.
quantity.measured: pIC50

INSERT INTO results (molecule, quantity_measured, result) VALUES
  ('Cc1cccc(N2CC(C)(c3ccccc3)OC2=O)c1 (stereo not drawn)', 'pIC50', '< 6.00'),
  ('C[C@@H](c1ccc(Br)cc1)N1CC(CCCO)(c2ccc(F)cc2)OC1=O (single isomer, unassigned) [Example 2 Isomer 2]', 'pIC50', '< 7.00'),
  ('C[C@@H](c1ccc(-c2ccn(C)c(=O)c2)cc1)N1C[C@](CC(C)(C)O)(c2ccccc2)OC1=O (single isomer, unassigned) [Example 5 Isomer 1]', 'pIC50', '> 7.00');

====

- target.under.test: human 11β-HSD1 (Homo sapiens, UniProt P28845)
- method: Inhibition of microsomal preparation of 11β-HSD1 (SPA, [3H]cortisone to [3H]cortisol), Biological Test Example 1
- test.parameters: microsomes from CHO cells overexpressing human 11β-HSD1; read-out: IC50 Range
pIC50: −log10 of the molar value.
quantity.measured: pIC50

INSERT INTO measurements (molecule, target_under_test, result) VALUES
  ('C[C@@H](c1ccc(-c2ccc(F)cc2)cc1)N1CC(CCCO)(c2ccc(F)cc2)OC1=O (single isomer, unassigned) [Example 3 Isomer 1]', 'human 11β-HSD1 (Homo sapiens, UniProt P28845)', '> 7.00'),
  ('C[C@@H](c1ccc(-c2ccn(C)c(=O)c2)cc1)N1C[C@](CCC(C)(C)O)(c2ccccc2)OC1=O (single isomer, unassigned) [Example 6 Isomer 2]', 'human 11β-HSD1 (Homo sapiens, UniProt P28845)', '< 7.00'),
  ('C[C@@H](c1ccc(-c2ccc(F)cc2)cc1)N1CC(CCCO)(c2ccc(F)cc2)OC1=O (single isomer, unassigned) [Example 3 Isomer 2]', 'human 11β-HSD1 (Homo sapiens, UniProt P28845)', '< 7.00'),
  ('C[C@@H](c1ccc(-c2ccn(C)c(=O)c2)cc1)N1C[C@](CCC(C)(C)O)(c2ccccc2)OC1=O (single isomer, unassigned) [Example 6 Isomer 1]', 'human 11β-HSD1 (Homo sapiens, UniProt P28845)', '< 7.00'),
  ('C[C@@H](c1ccc(Br)cc1)N1CC(CCCO)(c2ccc(F)cc2)OC1=O (single isomer, unassigned) [Example 2 Isomer 1]', 'human 11β-HSD1 (Homo sapiens, UniProt P28845)', '> 7.00'),
  ('C[C@@H](c1ccc(-c2ccn(C)c(=O)c2)cc1)N1C[C@@](CC(C)(C)O)(c2ccccc2)OC1=O (single isomer, unassigned) [Example 5 Isomer 2]', 'human 11β-HSD1 (Homo sapiens, UniProt P28845)', '< 7.00');

====

- target.under.test: human 11β-HSD1 (Homo sapiens)
- Construct: expressed in transfected cells; host or cells: CHO cells (microsomes isolated from them)
- method: Inhibition of microsomal preparation of 11β-HSD1 (SPA, [3H]cortisone to [3H]cortisol), Biological Test Example 1
- Type: biochemical
- test.parameters: 100 nM compound; microsomes from CHO cells overexpressing human 11β-HSD1; 0.1 µM
quantity.measured: Average % inhibition at 100 nM (%)

INSERT INTO assay_data (compound, quantity_measured, recorded_number) VALUES
  ('C[C@@H](c1ccc(-c2ccc(F)cc2)cc1)N1CC(CCCO)(c2ccc(F)cc2)OC1=O (single isomer, unassigned) [Example 3 Isomer 1]', 'Average % inhibition at 100 nM', 91.4),
  ('C[C@@H](c1ccc(-c2ccc(F)cc2)cc1)N1CC(CCCO)(c2ccc(F)cc2)OC1=O (single isomer, unassigned) [Example 3 Isomer 2]', 'Average % inhibition at 100 nM', 19.1),
  ('C[C@@H](c1ccc(-c2ccn(C)c(=O)c2)cc1)N1C[C@](CCC(C)(C)O)(c2ccccc2)OC1=O (single isomer, unassigned) [Example 6 Isomer 2]', 'Average % inhibition at 100 nM', 19.8),
  ('C[C@@H](c1ccc(Br)cc1)N1CC(CCCO)(c2ccc(F)cc2)OC1=O (single isomer, unassigned) [Example 2 Isomer 2]', 'Average % inhibition at 100 nM', 16.9),
  ('C[C@@H](c1ccc(Br)cc1)N1CC(CCCO)(c2ccc(F)cc2)OC1=O (single isomer, unassigned) [Example 2 Isomer 1]', 'Average % inhibition at 100 nM', 78.3);

====

Below, each entry is listed with its recorded inhibition at 0.1 µM.
- target.under.test: human 11β-HSD1 (Homo sapiens, UniProt P28845)
- Construct: expressed in transfected cells; host or cells: CHO cells (microsomes isolated from them)
- method: Inhibition of microsomal preparation of 11β-HSD1 (SPA, [3H]cortisone to [3H]cortisol), Biological Test Example 1
- Type: biochemical
- test.parameters: 100 nM compound; microsomes from CHO cells overexpressing human 11β-HSD1
quantity.measured: inhibition at 0.1 µM (%)

INSERT INTO measurements (compound, quantity_measured, recorded_number) VALUES
  ('C[C@@H](c1ccc(-c2ccn(C)c(=O)c2)cc1)N1C[C@](CCC(C)(C)O)(c2ccccc2)OC1=O (single isomer, unassigned) [Example 6 Isomer 1]', 'inhibition at 0.1 µM', 18.4),
  ('C[C@@H](c1ccc(-c2ccn(C)c(=O)c2)cc1)N1C[C@](CC(C)(C)O)(c2ccccc2)OC1=O (single isomer, unassigned) [Example 5 Isomer 1]', 'inhibition at 0.1 µM', 51.9),
  ('C[C@@H](c1ccc(-c2ccn(C)c(=O)c2)cc1)N1C[C@@](CC(C)(C)O)(c2ccccc2)OC1=O (single isomer, unassigned) [Example 5 Isomer 2]', 'inhibition at 0.1 µM', 3.4),
  ('Cc1cccc(N2CC(C)(c3ccccc3)OC2=O)c1 (stereo not shown)', 'inhibition at 0.1 µM', 5.4);
